For each entry below, report its IC50 value.
Target: Protoporphyrinogen IX oxidase (Zea mays, UniProt Q9FYV8)
Sequence (Q9FYV8 whole entry): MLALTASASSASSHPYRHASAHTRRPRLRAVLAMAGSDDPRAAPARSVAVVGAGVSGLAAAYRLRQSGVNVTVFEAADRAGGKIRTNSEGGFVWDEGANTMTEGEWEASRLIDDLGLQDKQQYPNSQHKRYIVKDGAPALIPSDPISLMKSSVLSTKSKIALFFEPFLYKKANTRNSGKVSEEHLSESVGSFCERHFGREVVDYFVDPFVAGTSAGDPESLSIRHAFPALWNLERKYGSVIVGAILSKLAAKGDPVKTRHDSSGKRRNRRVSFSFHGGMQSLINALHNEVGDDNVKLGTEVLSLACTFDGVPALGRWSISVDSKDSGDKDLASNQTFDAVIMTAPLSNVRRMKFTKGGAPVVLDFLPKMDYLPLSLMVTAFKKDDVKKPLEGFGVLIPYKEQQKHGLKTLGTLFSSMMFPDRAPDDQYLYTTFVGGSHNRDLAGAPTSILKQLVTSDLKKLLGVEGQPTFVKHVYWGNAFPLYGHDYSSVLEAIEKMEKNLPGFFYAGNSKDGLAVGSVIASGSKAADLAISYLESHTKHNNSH
Test: Inhibition of Protoporphyrinogen IX oxidase in Zea mays cv. Anjou (maize) seedlings etioplasts homogenates assessed as reduction in protoporphyrin IX production by fluorescence spectroscopy
Details: read-out: pI50 (converted)
One number for each entry, in nM.

Below, 5 compounds whose answers are already recorded.
{"COMPOUND": "S=c1s/c(=N\\c2ccc(Br)cc2)n2n1CCCC2", "MEASURED TARGET": "Protoporphyrinogen IX oxidase (Zea mays, UniProt Q9FYV8)", "METRIC NAME": "IC50", "RESULT UNIT": "nM", "TEST VALUE": 741}
{"COMPOUND": "CC(C)Oc1cc(/N=c2\\sc(=S)n3n2CCCC3)c(F)cc1Cl", "MEASURED TARGET": "Protoporphyrinogen IX oxidase (Zea mays, UniProt Q9FYV8)", "METRIC NAME": "IC50", "RESULT UNIT": "nM", "TEST VALUE": 617}
{"COMPOUND": "S=c1n(-c2ccc(OCc3ccc(Cl)cc3)cc2)c(=S)n2n1CCCC2", "MEASURED TARGET": "Protoporphyrinogen IX oxidase (Zea mays, UniProt Q9FYV8)", "METRIC NAME": "IC50", "RESULT UNIT": "nM", "TEST VALUE": 12}
{"COMPOUND": "S=c1n(-c2ccc(Br)cc2)c(=S)n2n1CCCC2", "MEASURED TARGET": "Protoporphyrinogen IX oxidase (Zea mays, UniProt Q9FYV8)", "METRIC NAME": "IC50", "RESULT UNIT": "nM", "TEST VALUE": 7.24}
{"COMPOUND": "CCOc1cc(Oc2ccc(C(F)(F)F)cc2Cl)ccc1[N+](=O)[O-] [OXYFLUORFEN]", "MEASURED TARGET": "Protoporphyrinogen IX oxidase (Zea mays, UniProt Q9FYV8)", "METRIC NAME": "IC50", "RESULT UNIT": "nM", "TEST VALUE": 7.94}

# map each compound to its IC50
1. S=c1s/c(=N\c2ccc(Cl)cc2)n2n1CCCC2
2. C#CCOc1cc(/N=c2\sc(=S)n3n2CCCC3)c(F)cc1Cl

1: 1100; 2: 204
